Quick list: viability, T/C per entry.
# Tested on: G-401 tumor spheroids, viability % test/control
# Method Description: Anticancer human tumor G-401 cell line growth inhibition;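 note: spheroids exposed to compound for 7 days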;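 for viability, T/C: 100% = DMSO vehicle-treated spheroids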
# Condition Summary: second compound 3.16 µM; first compound 0.3 µM; stronger effect = lower value; spheroids with HUVEC and MSC
Measurement Label: viability, T/C (%)

>>> assay_value("Cc1sc2c(c1C)C(c1ccc(Cl)cc1)=NC(CC(=O)Nc1ccc(O)cc1)c1nnc(C)n1-2 (centres undefined) + Cn1nnc2c(C(N)=O)ncn2c1=O")
35.6
>>> assay_value("O=C(c1cc(Cc2n[nH]c(=O)c3ccccc23)ccc1F)N1CCN(C(=O)C2CC2)CC1 + Cn1nnc2c(C(N)=O)ncn2c1=O")
96.5
>>> assay_value("Cn1ncnc1[C@H]1c2n[nH]c(=O)c3cc(F)cc(c23)N[C@@H]1c1ccc(F)cc1 + Cn1nnc2c(C(N)=O)ncn2c1=O")
30.5
>>> assay_value("CNCc1ccc(-c2cc(-c3nc(-c4ccc(S(=O)(=O)C(C)C)cc4)cnc3N)on2)cc1 + Cn1nnc2c(C(N)=O)ncn2c1=O")
103

###

Reported viability, T/C values are given for each entry in this list.
# Tested on: G-401 tumor spheroids, viability % test/control
# Method Description: Anticancer human tumor G-401 cell line growth inhibition;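 note: spheroids exposed to compound for 7 days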;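 for viability, T/C: 100% = DMSO vehicle-treated spheroids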
# Condition Summary: second compound 0.0003 µM; first compound 0.316 µM; stronger effect = lower value; spheroids with HUVEC and MSC
# Description: Multicellular complex tumor spheroid response to DNA repair inhibitors in combination with DNA-damaging drugs This study explores the anticancer activities of DNA-damaging drugs and inhibitors of DNA damage repair, both as single agents and in combinations. […] Twenty-six patient-derived or established malignant cell lines were evaluated representing sarcoma, melanoma, small cell lung cancer (SCLC), non-small cell lung cancer (NSCLC), as well as bladder, ovarian and pancreatic cancers. […]
Measurement Label: viability, T/C (%)

>>> assay_value("[2H]c1nc(C)nc([2H])c1-c1cc(NC[C@@H](C)c2cccc3c(C(=O)NC)ccnc23)ncn1 + COc1cc2c(cc1O)CCNC21CSC2c3c(OC(C)=O)c(C)c4c(c3C(COC1=O)N1C(O)C3Cc5cc(C)c(OC)c(O)c5C(C21)N3C)OCO4")
40
>>> assay_value("CC(C)n1c(=O)n(C)c2cnc3cc(F)c(-c4ccc(OCCCN5CCCCC5)nc4)cc3c21 + COc1cc2c(cc1O)CCNC21CSC2c3c(OC(C)=O)c(C)c4c(c3C(COC1=O)N1C(O)C3Cc5cc(C)c(OC)c(O)c5C(C21)N3C)OCO4")
16.4
>>> assay_value("COc1cc(C)[nH]c(=O)c1CN1CCc2c(Cl)cc(C(OC)C3COC3)c(Cl)c2C1=O (stereo unspecified) + COc1cc2c(cc1O)CCNC21CSC2c3c(OC(C)=O)c(C)c4c(c3C(COC1=O)N1C(O)C3Cc5cc(C)c(OC)c(O)c5C(C21)N3C)OCO4")
23
>>> assay_value("COc1ccc([C@@H](O)c2cc(-c3ncnc4cc(N5CCOCC5)ccc34)c(F)cc2Cl)nn1 + COc1cc2c(cc1O)CCNC21CSC2c3c(OC(C)=O)c(C)c4c(c3C(COC1=O)N1C(O)C3Cc5cc(C)c(OC)c(O)c5C(C21)N3C)OCO4")
18.6
>>> assay_value("CC1COCCN1c1cc(-c2ccnn2C)c2ccnc(-c3ccn[nH]3)c2n1 (stereo unspecified) + COc1cc2c(cc1O)CCNC21CSC2c3c(OC(C)=O)c(C)c4c(c3C(COC1=O)N1C(O)C3Cc5cc(C)c(OC)c(O)c5C(C21)N3C)OCO4")
9.87
>>> assay_value("Cc1cc(C)c(CNC(=O)c2cc(-c3ccc(CN4CCOCC4)cc3)cc3c2cnn3C2CCCC2)c(=O)[nH]1 + COc1cc2c(cc1O)CCNC21CSC2c3c(OC(C)=O)c(C)c4c(c3C(COC1=O)N1C(O)C3Cc5cc(C)c(OC)c(O)c5C(C21)N3C)OCO4")
37.9

###

# Test system: G-401 tumor spheroids, viability % test/control
# Method Description: Anticancer human tumor G-401 cell line growth inhibition;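 note: spheroids exposed to compound for 7 days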
# Condition Summary: curve of first compound; second compound 1 µM; spheroids with HUVEC and MSC
Recorded measurements of log10(IC50), one per entry
Measurement Label: log10(IC50) (log10 of the value in µM)

>>> assay_value("CC1COCCN1c1cc(-c2ccnn2C)c2ccnc(-c3ccn[nH]3)c2n1 (stereo not given) + Cn1nnc2c(C(N)=O)ncn2c1=O")
-1.11
>>> assay_value("Cc1sc2c(c1C)C(c1ccc(Cl)cc1)=NC(CC(=O)Nc1ccc(O)cc1)c1nnc(C)n1-2 (stereo not given) + Cn1nnc2c(C(N)=O)ncn2c1=O")
-0.77
>>> assay_value("O=C(c1cc(Cc2n[nH]c(=O)c3ccccc23)ccc1F)N1CCN(C(=O)C2CC2)CC1 + Cn1nnc2c(C(N)=O)ncn2c1=O")
1.09
>>> assay_value("COc1cc(C)[nH]c(=O)c1CN1CCc2c(Cl)cc(C(OC)C3COC3)c(Cl)c2C1=O (stereo not given) + Cn1nnc2c(C(N)=O)ncn2c1=O")
-0.80
>>> assay_value("CNCc1ccc(-c2cc(-c3nc(-c4ccc(S(=O)(=O)C(C)C)cc4)cnc3N)on2)cc1 + Cn1nnc2c(C(N)=O)ncn2c1=O")
0.30
>>> assay_value("Cn1ncnc1[C@H]1c2n[nH]c(=O)c3cc(F)cc(c23)N[C@@H]1c1ccc(F)cc1 + Cn1nnc2c(C(N)=O)ncn2c1=O")
-0.81
>>> assay_value("COc1ccc([C@@H](O)c2cc(-c3ncnc4cc(N5CCOCC5)ccc34)c(F)cc2Cl)nn1 + Cn1nnc2c(C(N)=O)ncn2c1=O")
0.13

###

# System: G-401 tumor spheroids, viability % test/control
# Method Description: Anticancer human tumor G-401 cell line growth inhibition; active = viability on the fitted dose curve at most 10% of control; inactive = the rest;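 note: spheroids exposed to compound for 7 days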
# Condition Summary: second compound 94.9 pM; first compound 10 µM; spheroids with HUVEC and MSC
Outcome codes: active, inactive

>>> group("CC(C)n1c(=O)n(C)c2cnc3cc(F)c(-c4ccc(OCCCN5CCCCC5)nc4)cc3c21 + COc1cc2c(cc1O)CCNC21CSC2c3c(OC(C)=O)c(C)c4c(c3C(COC1=O)N1C(O)C3Cc5cc(C)c(OC)c(O)c5C(C21)N3C)OCO4")
"inactive"
>>> group("Cc1cc(C)c(CNC(=O)c2cc(-c3ccc(CN4CCOCC4)cc3)cc3c2cnn3C2CCCC2)c(=O)[nH]1 + COc1cc2c(cc1O)CCNC21CSC2c3c(OC(C)=O)c(C)c4c(c3C(COC1=O)N1C(O)C3Cc5cc(C)c(OC)c(O)c5C(C21)N3C)OCO4")
"inactive"
>>> group("[2H]c1nc(C)nc([2H])c1-c1cc(NC[C@@H](C)c2cccc3c(C(=O)NC)ccnc23)ncn1 + COc1cc2c(cc1O)CCNC21CSC2c3c(OC(C)=O)c(C)c4c(c3C(COC1=O)N1C(O)C3Cc5cc(C)c(OC)c(O)c5C(C21)N3C)OCO4")
"inactive"
>>> group("COc1ccc([C@@H](O)c2cc(-c3ncnc4cc(N5CCOCC5)ccc34)c(F)cc2Cl)nn1 + COc1cc2c(cc1O)CCNC21CSC2c3c(OC(C)=O)c(C)c4c(c3C(COC1=O)N1C(O)C3Cc5cc(C)c(OC)c(O)c5C(C21)N3C)OCO4")
"active"
>>> group("COc1cc(C)[nH]c(=O)c1CN1CCc2c(Cl)cc(C(OC)C3COC3)c(Cl)c2C1=O (stereo unspecified) + COc1cc2c(cc1O)CCNC21CSC2c3c(OC(C)=O)c(C)c4c(c3C(COC1=O)N1C(O)C3Cc5cc(C)c(OC)c(O)c5C(C21)N3C)OCO4")
"inactive"
>>> group("CC1COCCN1c1cc(-c2ccnn2C)c2ccnc(-c3ccn[nH]3)c2n1 (stereo unspecified) + COc1cc2c(cc1O)CCNC21CSC2c3c(OC(C)=O)c(C)c4c(c3C(COC1=O)N1C(O)C3Cc5cc(C)c(OC)c(O)c5C(C21)N3C)OCO4")
"inactive"

###

# Test system: G-401 tumor spheroids, viability % test/control
# Method Description: Anticancer human tumor G-401 cell line growth inhibition;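 note: spheroids exposed to compound for 7 days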;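 for viability, T/C: 100% = DMSO vehicle-treated spheroids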
# Condition Summary: second compound 94.9 pM; first compound 0.1 µM; stronger effect = lower value; spheroids with HUVEC and MSC
Listing of recorded viability, T/C by entry.
Measurement Label: viability, T/C (%)

>>> assay_value("COc1ccc([C@@H](O)c2cc(-c3ncnc4cc(N5CCOCC5)ccc34)c(F)cc2Cl)nn1 + COc1cc2c(cc1O)CCNC21CSC2c3c(OC(C)=O)c(C)c4c(c3C(COC1=O)N1C(O)C3Cc5cc(C)c(OC)c(O)c5C(C21)N3C)OCO4")
83.1
>>> assay_value("COc1cc(C)[nH]c(=O)c1CN1CCc2c(Cl)cc(C(OC)C3COC3)c(Cl)c2C1=O (stereo unspecified) + COc1cc2c(cc1O)CCNC21CSC2c3c(OC(C)=O)c(C)c4c(c3C(COC1=O)N1C(O)C3Cc5cc(C)c(OC)c(O)c5C(C21)N3C)OCO4")
44.6
>>> assay_value("CC1COCCN1c1cc(-c2ccnn2C)c2ccnc(-c3ccn[nH]3)c2n1 (stereo unspecified) + COc1cc2c(cc1O)CCNC21CSC2c3c(OC(C)=O)c(C)c4c(c3C(COC1=O)N1C(O)C3Cc5cc(C)c(OC)c(O)c5C(C21)N3C)OCO4")
16.9
>>> assay_value("[2H]c1nc(C)nc([2H])c1-c1cc(NC[C@@H](C)c2cccc3c(C(=O)NC)ccnc23)ncn1 + COc1cc2c(cc1O)CCNC21CSC2c3c(OC(C)=O)c(C)c4c(c3C(COC1=O)N1C(O)C3Cc5cc(C)c(OC)c(O)c5C(C21)N3C)OCO4")
87.5
>>> assay_value("Cc1cc(C)c(CNC(=O)c2cc(-c3ccc(CN4CCOCC4)cc3)cc3c2cnn3C2CCCC2)c(=O)[nH]1 + COc1cc2c(cc1O)CCNC21CSC2c3c(OC(C)=O)c(C)c4c(c3C(COC1=O)N1C(O)C3Cc5cc(C)c(OC)c(O)c5C(C21)N3C)OCO4")
110
>>> assay_value("CC(C)n1c(=O)n(C)c2cnc3cc(F)c(-c4ccc(OCCCN5CCCCC5)nc4)cc3c21 + COc1cc2c(cc1O)CCNC21CSC2c3c(OC(C)=O)c(C)c4c(c3C(COC1=O)N1C(O)C3Cc5cc(C)c(OC)c(O)c5C(C21)N3C)OCO4")
17.3
